- system: ER in T47D cells (Homo sapiens (Human))
- Sequence (P03372 whole entry): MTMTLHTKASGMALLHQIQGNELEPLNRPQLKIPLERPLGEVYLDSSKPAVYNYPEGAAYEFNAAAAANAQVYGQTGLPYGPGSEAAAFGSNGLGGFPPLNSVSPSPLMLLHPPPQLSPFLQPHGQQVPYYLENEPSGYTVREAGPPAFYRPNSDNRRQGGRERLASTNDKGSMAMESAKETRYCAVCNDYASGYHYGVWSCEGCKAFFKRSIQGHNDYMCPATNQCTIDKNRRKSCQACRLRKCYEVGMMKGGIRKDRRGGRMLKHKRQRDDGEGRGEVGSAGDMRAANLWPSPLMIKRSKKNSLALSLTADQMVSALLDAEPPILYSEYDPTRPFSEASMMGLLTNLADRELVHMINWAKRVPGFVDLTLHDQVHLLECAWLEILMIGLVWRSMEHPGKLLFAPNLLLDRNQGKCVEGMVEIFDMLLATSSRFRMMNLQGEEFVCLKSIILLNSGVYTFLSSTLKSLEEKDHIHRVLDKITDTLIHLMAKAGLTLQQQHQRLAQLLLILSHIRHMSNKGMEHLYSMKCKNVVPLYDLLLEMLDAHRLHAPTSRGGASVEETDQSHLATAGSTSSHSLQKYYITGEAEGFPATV
- method_description: In-cell Western (ICW) ER degradation assay in T47D cells
- Type: cell-based
- condition_details: ER degradation, 16 hrs treatment
Please respond with reported DC50 for every item in the list.

Quick check: DC50 of O=C1CC[C@H](N2Cc3c(ccc4c3OC[C@H]3CN(CC5CCC6(CC5)CN(c5ncc([C@H]7c8ccc(O)cc8CC[C@H]7c7ccccc7)cn5)C6)CCN43)C2=O)C(=O)N1 (single isomer, unassigned) ? 10 to 100 nM

Can you handle O=C1CC[C@H](N2Cc3c(ccc4c3OC[C@H]3CN(CC5CC6COCC(C5)N6c5ccc([C@@H]6c7ccc(O)cc7CC[C@@H]6c6ccccc6)cc5)CCN43)C2=O)C(=O)N1 (stereo partly drawn) next? < 1 nM

Can you handle COc1cc(N2CCC(CN3CCC(c4ccc(N[C@@H]5CCC(=O)NC5=O)cc4)CC3)CC2)ccc1[C@@H]1c2ccc(O)cc2CC[C@@H]1c1ccccc1 (single isomer, unassigned) next? < 1 nM

Can you handle O=C1CC[C@H](N2Cc3cc4c(cc3C2=O)OCC42CCN(C[C@@H]3COC4(CCN(c5ccc([C@@H]6c7ccc(O)cc7CC[C@@H]6c6ccccc6)cc5)CC4)C3)CC2)C(=O)N1 next? 10 to 100 nM

Can you handle COc1cc(N2CCC3(CC2)C[C@H](CN2CCN4c5cc6c(cc5OC[C@@H]4C2)C(=O)N([C@H]2CCC(=O)NC2=O)C6)CO3)c(F)cc1[C@@H]1c2ccc(O)cc2CC[C@@H]1c1ccccc1 next? < 1 nM

Can you handle O=C1CC[C@H](NC(=O)c2ccc3c(n2)OC[C@H]2CN(CC4CCN(c5ccc([C@@H]6c7ccc(O)cc7CC[C@@H]6c6ccccc6)cc5)CC4)CCN32)C(=O)N1 (single isomer, unassigned) next? < 1 nM

Can you handle COc1cc(N2CC3(CC(CN4CCN5c6ccc7c(c6OC[C@H]5C4)CN([C@H]4CCC(=O)NC4=O)C7=O)CO3)C2)ccc1[C@@H]1c2ccc(O)cc2CC[C@@H]1c1ccccc1 (single isomer, unassigned) next? 1 to 10 nM

Can you handle COc1cc(N2CCC3(CC2)CC(CN2CCN4c5ccc6c(c5OC[C@H]4C2)CN([C@H]2CCC(=O)NC2=O)C6=O)C3)ccc1[C@H]1c2ccc(O)cc2CC[C@H]1c1ccccc1 (single isomer, unassigned) next? 1 to 10 nM

Can you handle O=C1CC[C@H](NC(=O)c2ccc3c(n2)OC[C@H]2CN(C[C@@H]4COC5(CCN(c6ccc([C@@H]7c8ccc(O)cc8CC[C@@H]7c7ccccc7)cc6)CC5)C4)CCN32)C(=O)N1 (single isomer, unassigned) next? < 1 nM

---

- system: CRBN/DDB1 (Homo sapiens (Human))
- Sequence (Q96SW2 whole entry, species assumed): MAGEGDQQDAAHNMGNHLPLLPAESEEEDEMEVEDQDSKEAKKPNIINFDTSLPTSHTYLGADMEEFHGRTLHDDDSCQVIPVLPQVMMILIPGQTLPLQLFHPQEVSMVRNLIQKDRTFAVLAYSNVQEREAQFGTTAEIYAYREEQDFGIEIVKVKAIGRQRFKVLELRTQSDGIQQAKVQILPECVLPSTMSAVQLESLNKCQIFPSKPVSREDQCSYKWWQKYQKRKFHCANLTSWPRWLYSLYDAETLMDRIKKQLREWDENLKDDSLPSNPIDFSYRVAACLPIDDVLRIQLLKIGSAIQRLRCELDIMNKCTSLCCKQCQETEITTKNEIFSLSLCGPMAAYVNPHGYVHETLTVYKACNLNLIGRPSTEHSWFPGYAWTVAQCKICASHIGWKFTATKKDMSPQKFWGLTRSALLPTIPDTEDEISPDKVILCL
- Sequence (Q16531 whole entry partner, species assumed): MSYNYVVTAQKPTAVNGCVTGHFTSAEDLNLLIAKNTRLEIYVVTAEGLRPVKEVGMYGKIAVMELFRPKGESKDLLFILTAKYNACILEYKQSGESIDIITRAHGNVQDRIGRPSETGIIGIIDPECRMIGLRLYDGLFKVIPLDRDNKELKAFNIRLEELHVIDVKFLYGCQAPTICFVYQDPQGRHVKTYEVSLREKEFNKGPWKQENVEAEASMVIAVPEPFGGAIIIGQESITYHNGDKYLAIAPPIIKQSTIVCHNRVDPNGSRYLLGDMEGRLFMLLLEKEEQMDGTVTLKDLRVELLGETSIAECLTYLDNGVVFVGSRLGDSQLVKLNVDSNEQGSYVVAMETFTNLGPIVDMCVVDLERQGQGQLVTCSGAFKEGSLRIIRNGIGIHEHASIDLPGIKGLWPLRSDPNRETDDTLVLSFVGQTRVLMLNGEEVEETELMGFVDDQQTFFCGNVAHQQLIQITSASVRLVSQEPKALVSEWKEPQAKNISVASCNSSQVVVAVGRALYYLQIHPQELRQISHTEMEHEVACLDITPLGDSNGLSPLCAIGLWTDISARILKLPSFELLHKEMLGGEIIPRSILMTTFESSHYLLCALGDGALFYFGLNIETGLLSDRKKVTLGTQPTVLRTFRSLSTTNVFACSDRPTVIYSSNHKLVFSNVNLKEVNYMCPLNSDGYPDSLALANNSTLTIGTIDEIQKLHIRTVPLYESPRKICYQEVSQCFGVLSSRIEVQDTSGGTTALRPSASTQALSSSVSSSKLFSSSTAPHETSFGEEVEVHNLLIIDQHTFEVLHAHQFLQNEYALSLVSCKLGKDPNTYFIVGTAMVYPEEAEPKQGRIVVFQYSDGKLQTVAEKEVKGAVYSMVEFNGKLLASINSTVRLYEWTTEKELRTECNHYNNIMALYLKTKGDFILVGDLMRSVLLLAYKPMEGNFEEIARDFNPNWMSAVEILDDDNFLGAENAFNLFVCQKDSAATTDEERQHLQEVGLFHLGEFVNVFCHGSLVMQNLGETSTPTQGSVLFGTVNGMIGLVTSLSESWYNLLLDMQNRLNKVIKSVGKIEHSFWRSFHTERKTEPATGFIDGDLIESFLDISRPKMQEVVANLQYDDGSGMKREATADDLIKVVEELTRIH
- condition_details: His tagged CRBN+DDB1, Cy5-labeled Thalidomide probe, one hour; read-out: CRBN HTRF IC50
Please respond with reported IC50 for every item in the list.

Quick check: IC50 of COc1cc(N2CCC(CN3CCC4(CC3)COc3c4ccc4c3CN([C@H]3CCC(=O)NC3=O)C4=O)CC2)ccc1[C@@H]1c2ccc(O)cc2CC[C@@H]1c1ccccc1 ? < 50 nM

Can you handle O=C1CC[C@H](N2Cc3c(ccc4c3OC[C@H]3CN(CC5CCN(c6ccc([C@@H]7c8ccc(O)cc8CC[C@@H]7c7ccccc7)cc6)CC5)CCN43)C2=O)C(=O)N1 next? 50 to 500 nM

Can you handle O=C1CC[C@H](N2Cc3cc4c(cc3C2=O)OC[C@@H]2CN(CC3CC5(CCN(c6ccc([C@@H]7c8ccc(O)cc8CC[C@@H]7c7ccccc7)cc6F)CC5)C3)CCN42)C(=O)N1 (single isomer, unassigned) next? 500 to 5000 nM
